Target: human plasma protein factor Xa (Homo sapiens)
Construct: The human plasma protein factor Xa was purchased
Test: Factor Xa IC50 determination (cleavage of paranitroanilide substrate S-2765)
Settings: factor Xa 1 nM, S-2765 100 μM, Tris buffered saline pH 7.4, read at 405 nm
pIC50: −log10 of the molar value.
Here, each record is paired with measured pIC50 data.

| molecule | pIC50 |
| --- | --- |
| O=C(NCc1cn(-c2ccc(-n3ccccc3=O)cc2C(=O)O)nn1)c1ccc(Cl)s1 [Compound 100] | 6.30 to 7.00 |

Quote human plasma protein factor Xa (Homo sapiens) pIC50 for entry CNc1ccc(-c2cc(-n3ccccc3=O)ccc2-n2cc(CNC(=O)c3ccc(Cl)s3)nn2)cn1 [Compound 146] . ≥ 7.00

Quote human plasma protein factor Xa (Homo sapiens) pIC50 for entry CS(=O)(=O)c1cc(-n2ccccc2=O)ccc1-n1cc(CNC(=O)c2ccc(Cl)s2)nn1 [Compound 52] . ≥ 7.00

Quote human plasma protein factor Xa (Homo sapiens) pIC50 for entry O=C(NCc1cn(-c2ccc(-n3ccccc3=O)cc2CN2CCOCC2)nn1)c1ccc(Cl)s1 [Compound 160] . ≥ 7.00

Quote human plasma protein factor Xa (Homo sapiens) pIC50 for entry O=C(NCc1cn(-c2ccc(-n3ccccc3=O)cc2OCCN2CCCC2)nn1)c1ccc(Cl)s1 [Compound 88] . ≥ 7.00

Quote human plasma protein factor Xa (Homo sapiens) pIC50 for entry O=C(NCc1cn(-c2ccc(-n3ccccc3=O)cc2C(=O)N2CCNCC2)nn1)c1ccc(Cl)s1 [Compound 113] . 6.30 to 7.00

Quote human plasma protein factor Xa (Homo sapiens) pIC50 for entry O=C(NCc1cn(-c2ccc(-n3ccccc3=O)cc2OCCN2CCOCC2)nn1)c1ccc(Cl)s1 [Compound 90] . ≥ 7.00

Quote human plasma protein factor Xa (Homo sapiens) pIC50 for entry Cc1cc(COc2cc(-n3ccccc3=O)ccc2-n2cc(CNC(=O)c3ccc(Cl)s3)nn2)no1 [Compound 179] . ≥ 7.00

###

Biological target: human plasma protein factor Xa (Homo sapiens, UniProt P00742)
Construct: The human plasma protein factor Xa was purchased
Sequence (P00742 235-488 limits assumed): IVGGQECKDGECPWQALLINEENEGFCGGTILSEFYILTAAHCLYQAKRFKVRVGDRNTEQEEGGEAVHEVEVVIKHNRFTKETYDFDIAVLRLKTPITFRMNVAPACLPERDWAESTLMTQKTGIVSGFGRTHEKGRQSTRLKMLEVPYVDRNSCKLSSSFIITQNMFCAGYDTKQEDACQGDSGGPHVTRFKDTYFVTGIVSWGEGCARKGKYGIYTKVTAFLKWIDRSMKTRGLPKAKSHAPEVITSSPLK
Sequence (P00742 41-179 partner limits assumed): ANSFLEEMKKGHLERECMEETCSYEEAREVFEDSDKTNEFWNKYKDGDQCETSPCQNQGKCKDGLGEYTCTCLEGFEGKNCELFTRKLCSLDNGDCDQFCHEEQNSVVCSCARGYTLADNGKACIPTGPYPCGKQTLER
Test: Factor Xa IC50 determination (cleavage of paranitroanilide substrate S-2765)
Conditions: factor Xa 1 nM, S-2765 100 μM, Tris buffered saline pH 7.4, read at 405 nm
Description: This example illustrates methods for evaluating the compounds of the invention, along with results obtained for such assays. The in vitro and in vivo human Factor Xa activities of the inventive compounds can be determined by various procedures known in the art, such as a test for their ability to inhibit the activity of human plasma Factor Xa. […] The IC50 value is the concentration (in nM) of the compound required to provide 50% inhibition of human Factor Xa proteolytic activity. […]
pIC50: −log10 of the molar value.
readout_name: pIC50

Example results:
| molecule | readout_name | recorded_measurement |
| --- | --- | --- |
| O=C(NCc1cn(-c2ccc(-n3ccccc3=O)cc2N2CCCC2=O)nn1)c1ccc(Cl)s1 [Compound 43] | pIC50 | ≥ 7.00 |
| O=C(NCc1cn(-c2ccc(-n3ccccc3=O)cc2OCCN2CCCCC2)nn1)c1ccc(Cl)s1 [Compound 89] | pIC50 | ≥ 7.00 |
| O=C(NCc1cn(-c2ccc(-n3ccccc3=O)cc2N2CCSCC2)nn1)c1ccc(Cl)s1 [Compound 10] | pIC50 | ≥ 7.00 |
| O=C(NCc1cn(-c2ccc(-n3ccccc3=O)cc2OCc2cscn2)nn1)c1ccc(Cl)s1 [Compound 171] | pIC50 | ≥ 7.00 |
| O=C(NCc1cn(-c2ccc(-n3ccccc3=O)cc2CN2CCSCC2)nn1)c1ccc(Cl)s1 [Compound 162] | pIC50 | ≥ 7.00 |

// next entry
For O=C(NCc1cn(-c2ccc(-n3ccccc3=O)cc2OCCCO)nn1)c1ccc(Cl)s1 [Compound 74] , write its pIC50. ≥ 7.00
